- Test system: U2932 TK216-resistant clone 3
- experiment-summary: cell proliferation relative to vehicle (% of vehicle); higher = less growth inhibition
- condition-summary: 50 nM; 72 h
Give cell proliferation for every item shown.

# annotated cases, reported cell proliferation shown
Lab entry: U2932 TK216-resistant clone 3 assay, molecule `COCCOc1ccc2c(c1)ncn2-c1ccc2cccc(N3CCC(N)CC3)c2n1` , cell proliferation = 103

Lab entry: U2932 TK216-resistant clone 3 assay, molecule `NC1(c2ccc(-c3nc4ccn5c(=O)[nH]nc5c4cc3-c3ccccc3)cc2)CCC1` , cell proliferation = 97.5

Lab entry: U2932 TK216-resistant clone 3 assay, molecule `Cc1c(NC(=O)OC[C@@H]2COCCN2)cn2ncnc(Nc3ccc4c(cnn4Cc4cccc(F)c4)c3)c12` , cell proliferation = 98.1

Go through the list and state cell proliferation for each entry.
1. Cc1cc(N2CCOCC2)cc2[nH]c(-c3c(NC[C@@H](O)c4cccc(Cl)c4)cc[nH]c3=O)nc12
2. O=C(NCCCNc1nc(Nc2cccc(NC(=O)N3CCCC3)c2)ncc1I)c1cccs1

*A*
1: 100; 2: 99.5

Values from the supplement of paper PMC13172266
